Test: clinical
Conditions: human, in vivo, iv, 1500 mg
attribute.measured: level at 12 h (µg/mL)
Just the number please, in µg/mL, no unit attached.

-- ask I have this compound here, CN[C@H]1C(=O)N[C@@H]2Cc3ccc(cc3)Oc3cc4cc(c3O[C@@H]3O[C@H](C(=O)O)[C@@H](O)[C@H](O)[C@H]3NC(=O)CCCCCCCCC(C)C)Oc3ccc(cc3Cl)[C@@H](O)[C@@H]3NC(=O)[C@H](NC(=O)[C@@H]4NC(=O)[C@@H](NC2=O)c2cc(cc(O)c2Cl)Oc2cc1ccc2O)c1ccc(O)c(c1)-c1c(O[C@H]2O[C@H](CO)[C@@H](O)[C@H](O)[C@@H]2O)cc(O)cc1[C@@H](C(=O)NCCCN(C)C)NC3=O , and I need its recorded level at 12 h.
-- reply 194

====

Experiment: clinical
Conditions: human, in vivo, iv
attribute.measured: clearance (mL/min)
A number alone suffices; assume mL/min.

-- ask Query (molecule): CN[C@H]1C(=O)N[C@@H]2Cc3ccc(cc3)Oc3cc4cc(c3O[C@@H]3O[C@H](C(=O)O)[C@@H](O)[C@H](O)[C@H]3NC(=O)CCCCCCCCC(C)C)Oc3ccc(cc3Cl)[C@@H](O)[C@@H]3NC(=O)[C@H](NC(=O)[C@@H]4NC(=O)[C@@H](NC2=O)c2cc(cc(O)c2Cl)Oc2cc1ccc2O)c1ccc(O)c(c1)-c1c(O[C@H]2O[C@H](CO)[C@@H](O)[C@H](O)[C@@H]2O)cc(O)cc1[C@@H](C(=O)NCCCN(C)C)NC3=O ; field requested: clearance
-- reply 0.683
